Note to self: values exactly at 70 °C are 1 (yes). So melting point at or above 70 °C is 1 (yes), below is 0 (no).

Example results:
compound=O=C(/C=C/c1ccccc1)c1ccccc1 assigned_label="0 (no)"
compound=CCCCCCCCCCCCCCCc1ccccc1 assigned_label="0 (no)"
compound=CCCCOc1ccccc1 assigned_label="0 (no)"
compound=O=[N+]([O-])c1ccc(NS(=O)(=O)c2ccc(Cl)c(C(F)(F)F)c2)c(Cl)c1 assigned_label="1 (yes)"
compound="OC1[C@@H](O)[C@H](O)C[C@@H](O)[C@@H]1O (stereo partly drawn)" assigned_label="1 (yes)"

Q) Determine whether measured melting point meets or exceeds 70 °C for `O=C1c2ccccc2C(=O)N1CCCBr`
A) 1 (yes)

Q) And then `NNc1cc(Cl)ccc1Cl` , what is it?
A) 1 (yes)

Q) And then CC(C)(C)[C@@H](O)[C@@H](Cc1ccc(Cl)cc1)n1cncn1 (single isomer, unassigned) , what is it?
A) 1 (yes)

Q) And then CCCC(C(N)=O)n1nc2ccccc2n1 (stereo not drawn) , what is it?
A) 1 (yes)

Q) And then `O=C(O)c1ccc(C(=O)O)nc1` , what is it?
A) 1 (yes)

Q) And then `Nc1cccc(C(F)(F)F)c1` , what is it?
A) 0 (no)

Q) And then `CC(C)(CCl)C(=O)O` , what is it?
A) 0 (no)

Q) And then `O=C(CC(=O)C(F)(F)F)c1cccs1` , what is it?
A) 0 (no)

Q) And then `OCC(F)(F)F` , what is it?
A) 0 (no)

Q) And then `Cc1cccc(C)c1NC(=O)c1ccc[nH]c1=O` , what is it?
A) 1 (yes)

Q) And then CCC(O)C(CC(C)N(C)C)(c1ccccc1)c1ccccc1 (stereo not drawn) , what is it?
A) 1 (yes)

Q) And then CC(=O)OC(C(=O)Cl)c1ccccc1 (stereo not drawn) , what is it?
A) 0 (no)

Q) And then `COc1cccc([N+](=O)[O-])c1` , what is it?
A) 0 (no)

Q) And then `CC(C)CCOC=O` , what is it?
A) 0 (no)

Q) And then `O=P(O)(Oc1ccccc1)Oc1ccccc1` , what is it?
A) 0 (no)

---

boiling point strictly less than 200 °C = rule met. Otherwise rule not met.

Example results:
smiles_representation=CCCCCCC(C)C assigned_label="rule met"
smiles_representation=Fc1ccc(C(F)(F)F)cc1 assigned_label="rule met"
smiles_representation=Cc1ccncc1 assigned_label="rule met"
smiles_representation=Oc1c(Br)cc(Br)cc1Br assigned_label="rule not met"
smiles_representation=CCCCOCc1ccco1 assigned_label="rule met"
smiles_representation=Cc1c(Cl)cccc1[N+](=O)[O-] assigned_label="rule not met"
smiles_representation=Clc1ccc(Br)cc1Cl assigned_label="rule not met"

Turning now to a further record.
Q) Could you please tell me whether boiling point recorded for `COC(OC)OC` is less than 200 °C?
A) rule met

---

Attribute: log10 biotransformation half-life (days)
test-context: fish
Provide a numeric answer; units are not to be included.

compound=Clc1cc(Cl)c(-c2cc(Cl)c(Cl)cc2Cl)cc1Cl experimental_result=2.55

Q) Need log10 biotransformation half-life (days) of CC1(C)[C@H](C(=O)OCc2cccc(Oc3ccccc3)c2)[C@@H]1C=C(Cl)Cl (single isomer, unassigned) , thanks.
A) 0.37

Q) And then CCC(C)c1ccc(O)cc1 (stereo not given) , what is it?
A) -0.84

Q) And then `CC(C)[N+](=O)[O-]` , what is it?
A) -1.2

Q) And then `CCOP(=S)(OCC)Oc1cc(C)nc(C(C)C)n1` , what is it?
A) 0.07

---

Class (by melting point) -- class A (below 70 °C), class B (70 °C to below 100 °C), class C (100 °C or more)

Example results:
molecule=CCCCCCCCCCCCN assigned_label="class A"
molecule=CCNc1nc(NC(C)C)nc(SC)n1 assigned_label="class B"
molecule=Cc1ccccc1Oc1cccnn1 assigned_label="class B"
molecule=Cc1ccc([N+](=O)[O-])c(O)c1 assigned_label="class A"

Q) Hi, small favor: classify `COc1ccc(C(=O)O)cc1` by its melting point when you get a moment.
A) class C

Q) And then `Oc1ccc(S)cc1` , what is it?
A) class A

Q) And then `CCCCc1ccccc1` , what is it?
A) class A

Q) And then `C1CCCC1` , what is it?
A) class A

Q) And then `Cc1ncc(CO)c(CO)c1O` , what is it?
A) class C

Q) And then `O=C(O)CCCCCCC(=O)O` , what is it?
A) class C

Q) And then `CCCCCCCC/C=C\CCCCCCCC(=O)[O-].[Na+]` , what is it?
A) class C

---

Attribute: boiling point
// note: answer is a bare numeric in °C

Examples from the recorded data:
molecule="CC1=CCCC1C (centres undefined)" experimental_result=99
molecule=CCCCCCCCCCl experimental_result=204

Q) Need boiling point of `c1ccc2nsnc2c1` , thanks.
A) 203

Q) And then `CCOC(=O)C(Cl)(Cl)C(C)=O` , what is it?
A) 206

---

Class (by melting point) -- b0: < -20 °C; b1: ≥ -20 °C and < 90 °C; b2: ≥ 90 °C

Example results:
compound=O=Cc1cccc(C(=O)O)c1 assigned_label=b2
compound=Cc1cccc(N)n1 assigned_label=b1
compound=O=C1c2ccccc2CCc2ccccc21 assigned_label=b1
compound=O=C[O-].[Na+] assigned_label=b2

Q) Hi, small favor: classify `CCOC(=O)CC` by its melting point when you get a moment.
A) b0

Q) And then `CCNc1nsc2ccccc12` , what is it?
A) b1

Q) And then `Cc1c(Cl)cccc1Nc1ncccc1C(=O)O` , what is it?
A) b2

Q) And then `O=C(Nc1ccc(Cl)c(Cl)c1)Nc1cc(Cl)ccc1Oc1ccc(Cl)cc1S(=O)(=O)[O-].[Na+]` , what is it?
A) b2

Q) And then `CCC(=O)c1ccc(C)cc1` , what is it?
A) b1

Q) And then CCCC(=O)c1c(C)cc(C)c(C2CC(=O)C(C(CC)=NOCC)=C(O)C2)c1C (centres undefined) , what is it?
A) b1

Q) And then `CC(C)C(=O)OC(=O)C(C)C` , what is it?
A) b0

Q) And then `CCN(C)CC` , what is it?
A) b0

Q) And then `Cc1cc(O)c([N+](=O)[O-])cc1Cl` , what is it?
A) b2

Q) And then `CN(C)c1ccc2c(c1)Sc1cc(N(C)C)ccc1N2C(=O)c1ccccc1` , what is it?
A) b2

Q) And then `COC(=O)c1ccc2c(c1)OCO2` , what is it?
A) b1

Q) And then `C=COC(C)=O` , what is it?
A) b0

Q) And then `CCCCOC(=O)CCCCC(=O)OCCCC` , what is it?
A) b0

Q) And then `COc1ccc(CCCCO)cc1` , what is it?
A) b1

Q) And then `CCNC(=O)/C=C(C)/C=C/C=C(C)/C=C/c1c(C)cc(OC)c(C)c1C` , what is it?
A) b2

Q) And then `C#CC(=C)C` , what is it?
A) b0

Q) And then CC(F)(Cl)CCl (centres undefined) , what is it?
A) b0

Q) And then `Cc1cccc2c1CCCC2` , what is it?
A) b0

---

Class (by log10 Henry constant (atm·m³/mol)) -- LOW = under -4, MID = from -4 up to -3, HIGH = -3 and over

smiles_representation=Cc1c(Cl)c(Cl)c(Cl)c(Cl)c1Cl assigned_label=MID
smiles_representation=Clc1ccc(-c2cc(Cl)ccc2Cl)cc1 assigned_label=MID
smiles_representation=CC(C)=O assigned_label=LOW
smiles_representation=CCSCC assigned_label=HIGH
smiles_representation=CBr assigned_label=HIGH
smiles_representation=O=c1c2cc(F)ccc2nc(-n2cncn2)n1-c1ccc(Cl)cc1Cl assigned_label=LOW

Q) Hi, small favor: classify `CCSSCC` by its log10 Henry constant (atm·m³/mol) when you get a moment.
A) HIGH

Q) And then `CCCCCO` , what is it?
A) LOW

Q) And then `CC(C)CCO[N+](=O)[O-]` , what is it?
A) HIGH

---

Attribute: boiling point
// note: answer is a bare numeric in °C

Examples from the recorded data:
molecule=CNc1ccc(Cl)cc1 units_label=°C experimental_result=240
molecule=Sc1ccccc1 units_label=°C experimental_result=169
molecule=CCc1cccnc1 units_label=°C experimental_result=165
molecule="CCCCCCCCCC(C)C=O (centres undefined)" units_label=°C experimental_result=171
molecule=C=CC1=CCCCC1 units_label=°C experimental_result=145
molecule=CC(=O)CCCC(C)C units_label=°C experimental_result=167
molecule=Cc1cc2ccccc2cn1 units_label=°C experimental_result=249
molecule=FC(F)(F)C(F)(F)C(F)(F)C(F)(F)C(F)(F)C(F)(F)OC(F)(F)C(F)(F)C(F)(F)C(F)(F)C(F)(F)C(F)(F)F units_label=°C experimental_result=181
molecule=FC(F)(F)C(Cl)(Cl)C(F)(F)Cl units_label=°C experimental_result=72
molecule=CCN(N)CC units_label=°C experimental_result=99

Q) Need boiling point of `COC(=O)C(=O)OC` , thanks.
A) 164

Q) And then `CCCCOCCOCCOCCCC` , what is it?
A) 256

Q) And then `C=CCCC` , what is it?
A) 29.9

Q) And then `Cc1ccc(N)cc1Cl` , what is it?
A) 243

Q) And then `CCCOC(OCCC)OCCC` , what is it?
A) 191

Q) And then `CCCCCO` , what is it?
A) 138

Q) And then `CCN1CCOCC1` , what is it?
A) 138

Q) And then `CCSSCC` , what is it?
A) 154

Q) And then CC(C)C(O)C(C)(C)C (centres undefined) , what is it?
A) 150

Q) And then `Clc1cc(Cl)nc(Cl)n1` , what is it?
A) 212

Q) And then `Cc1cccc(CBr)c1` , what is it?
A) 212

Q) And then `O=C(/C=C/c1ccccc1)c1ccccc1` , what is it?
A) 346

Q) And then `COc1cc(C(C)=O)ccc1O` , what is it?
A) 297

Q) And then `CCCC#CCCC` , what is it?
A) 132

Q) And then `C=CC=COC` , what is it?
A) 91.5

Q) And then `CC(C)COCCOCCO` , what is it?
A) 217

Q) And then `CCCCCCCCCCCCCCCCCCN=C=O` , what is it?
A) 300

Q) And then `CCCC/C=C\CCCCCCCCCC=O` , what is it?
A) 250

Q) And then `CCC(=O)c1ccc(C)cc1` , what is it?
A) 236

Q) And then `C=CCOCCC` , what is it?
A) 91

Q) And then `CCCCCCCCCCCCCCCCCCCc1ccccc1` , what is it?
A) 419

Q) And then CN1CCCC(CO)C1 (centres undefined) , what is it?
A) 142
